Tested on: CCRF-CEM leukemia
ASSAY_EXPLANATION: NCI-60 one-dose screen, 48 h (100 = growth as untreated, 0 = no growth, -100 = all killed)
CONDITION_SUMMARY: 10 µM unless noted
About 83,000 compounds went through this panel and 20% of them were active in at least one assay; those are over-represented in the sample as a whole.
We begin with a simple list: items and their reported growth.
Kindly answer with a numeric value in %, unit omitted.

Here is how some molecules turned out for growth.
INSERT INTO results (structure_as_smiles, recorded_result) VALUES
  ('CCCCCCNC(=O)Oc1ccc(/C(=C(/C)c2ccccc2)c2ccc(OCCN(C)C)cc2)cc1', 67.9),
  ('COc1cc(OC)c(S(N)(=O)=O)cc1C(=O)/C=C/c1ccccc1', 15.1),
  ('C=C(C)[C@@H]1CC[C@]2(C(=O)ON)CC[C@]3(C)[C@H](CC[C@@H]4[C@@]5(C)C/C(=C/c6ccc(Br)cc6)C(=O)C(C)(C)[C@@H]5CC[C@]43C)[C@@H]12', 67.8);

For the next question, use this molecule.
stdin: Please report the recorded growth for O=C1Nc2ccc(Cl)cc2/C1=C/c1ccc(OCc2ccc(Br)cc2F)cc1 .
stdout: 94.2

---

Tested on: SK-MEL-28 melanoma
ASSAY_EXPLANATION: NCI-60 one-dose screen, 48 h (100 = growth as untreated, 0 = no growth, -100 = all killed)
CONDITION_SUMMARY: 10 µM unless noted
Compounds without any hit were thinned out: in the full panel of roughly 83,000, 20% have a hit. Calls of active or inactive are those of the source. The calls were made as follows: active = growth percent below 10; inactive = the rest.
OBSERVABLE: growth

Here is how some molecules turned out for growth.
INSERT INTO results (molecule, recorded_result) VALUES
  ('O=C1Nc2ccc(Cl)cc2/C1=C/c1ccc(OCc2ccc(Br)cc2F)cc1', '105% (inactive)'),
  ('CC(C)N=C(N/C(N)=N/c1nc2ccccc2s1)NC(C)C', '74.6% (inactive)'),
  ('Oc1ccccc1-c1nnc(SCc2ccc(O)c3ncccc23)n1-c1ccccc1', '14.8% (inactive)');

stdin: So what growth did CC(C)=CCC[C@](C)(O)[C@H]1CC[C@]2(C)[C@@H]1CC[C@@H]1[C@@]3(C)CCC(NC(=O)c4ccccc4C(=O)O)C(C)(C)[C@@H]3CC[C@]12C (some centres undefined) get with SK-MEL-28 melanoma?
stdout: 34.3% (inactive)

stdin: Try this molecule next: NC(=O)N1N=C(c2cc3ccccc3oc2=O)CC1c1cn(-c2ccccc2)nc1-c1ccc(Cl)cc1 (centres undefined)
stdout: 60.1% (inactive)

stdin: Try this molecule next: O=C(CSc1nnc(-c2cccs2)n1-c1ccccc1)Nc1ccc(F)cc1
stdout: 104% (inactive)

---

System: HOP-92 NSCLC
ASSAY_EXPLANATION: NCI-60 one-dose screen, 48 h (100 = growth as untreated, 0 = no growth, -100 = all killed)
CONDITION_SUMMARY: 10 µM unless noted
This is part of a sample that, as a whole, favours compounds with a hit. Of some 83,000 tested, about 20% had one in any assay.
Note to self: values exactly at 50% are TRUE. So growth at or above 50% is TRUE, below is FALSE.

These solved cases illustrate the format of a correct answer.
INSERT INTO measurements (molecule, group) VALUES
  ('O=C(O)c1ccc(-n2cc(CNc3ccc(F)cc3)c(-c3ccc(C(F)(F)F)cc3)n2)cc1', 'TRUE'),
  ('Oc1ccc(CSc2nnc(-c3ccccc3)o2)c2cccnc12', 'FALSE'),
  ('Oc1ccc(CSc2nnc(-c3cnccn3)o2)c2cccnc12', 'FALSE'),
  ('CC1CCc2c(sc3nc(SCC(=O)N/N=C/c4ccc(Cl)cc4)n(-c4ccccc4)c(=O)c23)C1 (stereo not given)', 'TRUE');

Shifting focus to the molecule that follows.
stdin: API: above_or_equal(metric=growth, cutoff=50%) for item CS(=O)c1nccc(-c2c(-c3ccc(F)c(OCCc4ccc(F)cc4)c3)nc3sccn23)n1 (stereo not given)
stdout: FALSE

---

We begin with a simple list: items and their reported growth.
System: K-562 leukemia
ASSAY_EXPLANATION: NCI-60 one-dose screen, 48 h (100 = growth as untreated, 0 = no growth, -100 = all killed)
CONDITION_SUMMARY: 10 µM unless noted
The panel holds about 83,000 compounds, 20% with a hit somewhere; the sample as a whole holds those more often. Active and inactive are the calls of the source. How the source made its calls: active means growth percent below 10; inactive means the rest.

stdin: Please report the recorded growth for COc1ccc(Cn2cc3c(c2-c2cc(OC)c(OC)c(OC)c2)CCCc2cnoc2-3)cc1N .
stdout: 20.3% (inactive)

stdin: Try this compound next: COc1cc(-c2nc(SCc3ccc(C)cc3)[nH]c(=O)c2C#N)ccc1OCc1ccccc1
stdout: 87.9% (inactive)

stdin: Try this compound next: CCOC(=O)c1c(NCC(=O)Nc2ccc(Br)cc2)sc2c1CCCC2
stdout: 10.8% (inactive)

stdin: Try this compound next: NCCN1CCN(c2nc(-c3ccccc3)nc3nc(-c4ccccc4)oc23)CC1
stdout: 6.56% (active)

stdin: Try this compound next: O=C(CN1C(=O)CSC1=O)Nc1ccc(C(=O)/C=C/c2cc3ccccc3nc2Cl)cc1
stdout: 37.2% (inactive)

stdin: Try this compound next: CCOP(=O)(OCC)OC[C@]12CCC(C)(C)C[C@H]1C1=CC[C@@H]3[C@@]4(C)C/C(=C\c5cccnc5)[C@H](OP(=O)(OCC)OCC)C(C)(C)[C@@H]4CC[C@@]3(C)[C@]1(C)CC2
stdout: 9.94% (active)

stdin: Try this compound next: CCC(=O)Nc1ccc(-c2nc(-c3cccc(O)c3)c(-c3ccnc(Br)c3)[nH]2)cc1
stdout: 32.8% (inactive)

stdin: Try this compound next: CCCCCCNC(=O)Oc1ccc(/C(=C(\C)c2ccc(OC)cc2)c2ccc(OCCN(C)C)cc2)cc1
stdout: 9.79% (active)

---

We begin with a simple list: items and their reported growth.
Test system: M14 melanoma
ASSAY_EXPLANATION: NCI-60 one-dose screen, 48 h (100 = growth as untreated, 0 = no growth, -100 = all killed)
CONDITION_SUMMARY: 10 µM unless noted
Compounds without any hit were thinned out: in the full panel of roughly 83,000, 20% have a hit.
Kindly answer with a numeric value in %, unit omitted.

INSERT INTO assay_data (structure_as_smiles, recorded_result) VALUES
  ('CC(C)C[C@H]1C(=O)O[C@H](C(C)C)C(=O)N(C)[C@@H](C(C)C)C(=O)O[C@H](C(C)C)C(=O)N(C)[C@@H](C(C)C)C(=O)O[C@H](C(C)C)C(=O)N1C', 18.5),
  ('O=C1NC(=O)c2c1c1c3ccccc3ccc1c1[nH]c3ccccc3c21', 15.9),
  ('C#C[C@]1(O)CC[C@H]2[C@@H]3CC=C4c5sc(-c6ccccn6)nc5CC[C@]4(C)[C@H]3CC[C@@]21C', 74.8);

For the next question, use this molecule.
stdin: Please report the recorded growth for O=[N+]([O-])c1ccc(-c2nnc(SCc3ccc(O)c4ncccc34)n2-c2ccccc2)cc1 .
stdout: 24.2

---

We begin with a simple list: items and their reported growth.
System: OVCAR-8 ovarian
ASSAY_EXPLANATION: NCI-60 one-dose screen, 48 h (100 = growth as untreated, 0 = no growth, -100 = all killed)
CONDITION_SUMMARY: 10 µM unless noted
The panel holds about 83,000 compounds, 20% with a hit somewhere; the sample as a whole holds those more often.
Kindly answer with a numeric value in %, unit omitted.

Here is how some compounds turned out for growth.
INSERT INTO measurements (structure_as_smiles, target_or_test_system, observable, recorded_result) VALUES
  ('CC(C)N=C(N/C(N)=N/c1nc2ccccc2s1)NC(C)C', 'OVCAR-8 ovarian', 'growth', 67.2),
  ('C(=C(\C1=NCCN1)n1cnc2ccccc21)/c1ccc2ccccc2c1', 'OVCAR-8 ovarian', 'growth', 88.5),
  ('O=C1c2c(c3c4ccc(Br)cc4oc3c3[nH]c4ccccc4c23)C(=O)N1CCO', 'OVCAR-8 ovarian', 'growth', 50.4),
  ('O=c1c2ccccc2nc(COc2ccccc2)n1/N=C/C=C/c1ccccc1', 'OVCAR-8 ovarian', 'growth', 100);

For the next question, use this compound.
stdin: Please report the recorded growth for Nc1cc(F)ccc1NC(=O)c1ccc(NC(=O)C/C=C/c2cccnc2)cn1 .
stdout: 17.8

---

System: IGROV1 ovarian
ASSAY_EXPLANATION: NCI-60 one-dose screen, 48 h
CONDITION_SUMMARY: 10 µM unless noted
About 83,000 compounds went through this panel and 20% of them were active in at least one assay; those are over-represented in the sample as a whole. Active and inactive are the calls of the source. Rule for the calls: active = growth percent below 10; inactive = the rest.
Field 'call' accepts y (active), n (inactive)

These solved cases illustrate the format of a correct answer.
INSERT INTO assay_data (compound, group) VALUES
  ('O=C1Nc2cc(OC(F)(F)F)ccc2Oc2ccc(-c3ccnc(N4CC[C@H](O)C4)c3)cc21', 'n'),
  ('c1ccc(-c2c(-c3ccccc3)[n+](Cc3ccc4ccccc4c3)c(-c3ccccc3)n2Cc2ccc3ccccc3c2)cc1', 'y'),
  ('CC(C)C(=O)Nc1ccc(-c2nc(-c3cccc(O)c3)c(-c3ccnc(Br)c3)[nH]2)cc1', 'n'),
  ('O=C1[C@H]2Cc3c([nH]c4ccccc34)[C@@H](c3ccc(Cl)cc3)N2C(=O)CN1C1CCN(Cc2c(Cl)cccc2Cl)CC1', 'y'),
  ('C(=C(\C1=NCCN1)n1cnc2ccccc21)/c1cccc2ccccc12', 'n');

stdin: Assay outcome for O=C(Cn1cc(CN2C(=O)c3ccc([N+](=O)[O-])cc3C2=O)nn1)Nc1ccc(F)cc1Cl : what was it?
stdout: n

stdin: Try this compound next: Cc1ccc(NC(=O)c2ccc(CN3CCN(C)CC3)c(C(F)(F)F)c2)cc1Oc1ccc(-c2[nH]nc3ncnc(N)c23)cc1
stdout: n

stdin: Try this compound next: CC(C)(C)CC(C)(C)n1nnnc1C(Nc1ccccc1)c1cc2cccc3ccc4cccc1c4c32 (configuration not stated)
stdout: n

stdin: Try this compound next: CC(c1ccccc1)N1C(=O)/C(=C/c2csc(C#N)n2)SC1=S (configuration not stated)
stdout: n

stdin: Try this compound next: CC(=O)Nc1ccc(NC(=O)Nc2cccc(-c3nc(-c4ccc(NC(=O)c5cccnc5)cc4Cl)no3)c2)cc1C(F)(F)F
stdout: y
